Measured T/C accompanies every entry in the list below.
system: BDF1 mice, Adenocarcinoma 755 s.c., tumor weight T/C; test: NCI In Vivo Anticancer Drug Screen. Data for tumor model Adenocarcinoma 755 (subcutaneous) in B6D2F1 (BDF1) mice; conditions: endpoint: mean tumor weight; dose: 250.0 mg/kg/injection; schedule: Q01DX011 (ip); vehicle: carboxymethylcellulose (CMC); higher = larger tumour
valueType: T/C

{"compoundStructureString": "S=c1nc[nH]c2c1ncn2C1CC1", "valueType": "T/C", "dataValue": "33 % of control"}
{"compoundStructureString": "O=CN(O)CC(=O)O", "valueType": "T/C", "dataValue": "85 % of control"}
{"compoundStructureString": "S=c1nc[nH]c2c1ncn2C1CCCCC1", "valueType": "T/C", "dataValue": "66 % of control"}
{"compoundStructureString": "CCCCCCCCn1cnc2c(=S)nc[nH]c21", "valueType": "T/C", "dataValue": "67 % of control"}
{"compoundStructureString": "CN1C=NNc2ncnc(Cl)c21", "valueType": "T/C", "dataValue": "161 % of control"}
